Catalogue of log10(IC50) readings, one per entry.
System: CCRF-CEM
TEST_PROTOCOL: Inhibitory concentration against CEM cell growth after incubation in liquid medium for 72 h
Assay type: functional, cell-based
MEASUREMENT_PARAMETERS: Homo sapiens
In our notation, the value equals log10 of IC50 in nM.

>>> print(df.to_string())
                                   compound  result_number
0  COc1cc2c(cc1O)oc(=O)c1c2c(-c2ccc(OC)c(OC)c2)c2c3cc(OC)c(OC)cc3ccn21           3.48
1  COc1cc(-c2c3c4ccccc4oc(=O)c3n3ccc4cc(O)c(OC)cc4c23)ccc1O           3.35
2  CC[C@@]1(O)C(=O)OCc2c1cc1n(c2=O)Cc2cc3ccccc3nc2-1 [CAMPTOTHECIN]          -0.08
3  COc1cc(-c2c3c4ccc(O)cc4oc(=O)c3n3ccc4cc(O)c(OC)cc4c23)ccc1O           1.23
4  O=c1oc2ccccc2c2c(-c3ccc(O)c(O)c3)c3c4cc(O)c(O)cc4ccn3c12           2.63
5  COc1cc(-c2c3c4cc(OC)c(O)cc4oc(=O)c3n3ccc4cc(O)c(OC)cc4c23)ccc1O [LAMELLARIN D]           0.70
6  COc1ccc2oc(=O)c3c(c(-c4ccc(O)c(OC)c4)c4c5cc(OC)c(O)cc5ccn43)c2c1           2.72

[Q] Would you kindly share the measured log10(IC50) for "CC(=O)Oc1ccc(-c2c3c4cc(OC(C)=O)c(OC(C)=O)cc4oc(=O)c3n3ccc4cc(OC(C)=O)c(OC(C)=O)cc4c23)cc1OC(C)=O" ?
[A] 3.29
